// provenance: patent US20230357447A1

Catalogue of CD28 scFv signal in presence of CD28 readings, one per entry.
molecular target: T1, anti-CD28 scFv (VH-linker 1-VL) (biotinylated (site not stated)); experiment: phage ELISA; scFv wells pre-incubated with soluble CD28 (competitor);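 also: crude clonal phage supernatants added to wells pretreated with soluble CD28 in blocking buffer, bound phage read via HRP-linked anti-M13 antibody, reference wells got blocking buffer only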
T1 construct: Captured as biotinylated scFv on neutravidin coated plates in the phage ELISA
T1 sequence (scFv, as listed by the source): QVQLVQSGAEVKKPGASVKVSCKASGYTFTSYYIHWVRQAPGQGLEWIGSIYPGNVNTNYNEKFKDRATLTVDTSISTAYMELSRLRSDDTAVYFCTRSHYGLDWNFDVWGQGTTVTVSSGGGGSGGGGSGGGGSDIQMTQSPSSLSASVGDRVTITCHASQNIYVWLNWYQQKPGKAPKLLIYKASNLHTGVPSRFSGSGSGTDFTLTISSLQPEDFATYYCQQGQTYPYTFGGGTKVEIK
Write no unit; give the number alone.

Below: 7 binders and their reported CD28 scFv signal in presence of CD28.
- Binder: "MERCPRYLWHMCYS (on phage (pIII fusion)) [Phage-286 clonal phage peptide]"
  CD28 scFv signal in presence of CD28: 0.84
- Binder: "VPWCQIISGLECLT (on phage (pIII fusion)) [Phage-229 clonal phage peptide]"
  CD28 scFv signal in presence of CD28: 0.077
- Binder: "MDWCPRDQWHNCFN (on phage (pIII fusion)) [Phage-222 clonal phage peptide]"
  CD28 scFv signal in presence of CD28: 0.078
- Binder: "MDWCPRHLWNECFN (on phage (pIII fusion)) [Phage-283 clonal phage peptide]"
  CD28 scFv signal in presence of CD28: 0.393
- Binder: "MDWCPRYLWNVCFA (on phage (pIII fusion)) [Phage-289 clonal phage peptide]"
  CD28 scFv signal in presence of CD28: 0.28
- Binder: "MDWCPRNMWHHCFD (on phage (pIII fusion)) [Phage-248 clonal phage peptide]"
  CD28 scFv signal in presence of CD28: 0.524
- Binder: "MDWCPRDLWAMCFA (on phage (pIII fusion)) [Phage-285 clonal phage peptide]"
  CD28 scFv signal in presence of CD28: 0.889

Would you kindly look at the next entry?
The binder listed as MDWCPRDRWSDCFN (on phage (pIII fusion)) [Phage-227 clonal phage peptide] shows CD28 scFv signal in presence of CD28 equal to 0.074
